The measured values listed here are drawn from paper PMC9482650.

# Target or test system: T1, RAPGEF6, Q8TEU7
# T1 sequence (Q8TEU7 525-625, limits assumed, looked up): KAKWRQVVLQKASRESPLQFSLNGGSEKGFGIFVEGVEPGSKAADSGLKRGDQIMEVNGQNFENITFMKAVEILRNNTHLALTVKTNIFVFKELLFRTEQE
# Protocol details: holdup assay
# Parameters: key: below the threshold = too weak to quantify, mostly under pKd 3.1 to 4
# Measurement conditions: plain residues with an end cap or a label only (N-terminal biotin on a linker: ado-ado)
Readout label: pKd

Completed entries (count: 8):
QSGLYESEEL [MYOT, Q9UBF9] : 3.57
GTGYDRKDYV [CLDN3, O15551] : below the threshold
EKCGKEFSEF [PRKACA, P17612] : below the threshold
QKAPTKEFYA [SDC2, P34741] : 3.54
EPQYQPGENL [SRC, P12931] : below the threshold
MHIQEKGFHV [EPHA6, Q9UF33] : below the threshold
APIAGFSSFV [SDK2, Q58EX2] : below the threshold
DTKNYKQTSV [CRIPT, Q9P021] : below the threshold

State the recorded pKd for this entry: PPGKHLVTEV [KCNA7, Q96RP8]
3.52

Quick one: EDGESWEYQI [TRPV6, Q9H1D0]
below the threshold

Quick one: NVYGIESVKI [GRIA2, P42262]
below the threshold

Quick one: EDPRVEVTQF [SLC22A9, Q8IVM8]
below the threshold

Quick one: ARESQKVSHV [FAM110B, Q8TC76]
below the threshold
